- assayed-system: Tyrosine-protein kinase TXK (Homo sapiens) (UniProt P42681);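 further: value given is the mean percent inhibition of TXK kinase activity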
- Sequence (P42681 whole entry): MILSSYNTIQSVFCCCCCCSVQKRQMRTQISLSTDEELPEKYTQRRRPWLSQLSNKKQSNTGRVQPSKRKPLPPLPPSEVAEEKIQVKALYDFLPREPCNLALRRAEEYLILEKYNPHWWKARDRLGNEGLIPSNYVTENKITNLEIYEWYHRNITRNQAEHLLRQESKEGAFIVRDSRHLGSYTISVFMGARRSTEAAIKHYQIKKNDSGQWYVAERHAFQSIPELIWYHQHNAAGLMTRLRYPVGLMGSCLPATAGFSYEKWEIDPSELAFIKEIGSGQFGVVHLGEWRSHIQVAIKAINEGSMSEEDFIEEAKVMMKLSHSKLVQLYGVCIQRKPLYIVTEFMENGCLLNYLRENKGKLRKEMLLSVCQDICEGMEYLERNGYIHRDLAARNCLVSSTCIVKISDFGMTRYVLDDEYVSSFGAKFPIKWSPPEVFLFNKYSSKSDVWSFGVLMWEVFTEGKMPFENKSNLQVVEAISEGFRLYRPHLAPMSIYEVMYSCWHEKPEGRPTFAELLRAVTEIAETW
- experimental-setup: at 1 µM
Reported inhibition is given for each of the following molecules.
observation-type: inhibition (%)

1. COC(=O)c1sc(-n2cnc3cc(OC)c(OC)cc32)cc1OCc1ccccc1C(F)(F)F
7.15
2. Cc1ccc(O)cc1Nc1ccnc2cc(-c3ccccn3)ccc12
82.3
3. CS(=O)(=O)CCNCc1ccc(-c2ccc3ncnc(Nc4ccc(OCc5ccccc5)c(C(F)(F)F)c4)c3c2)o1
4.38
4. Fc1ccc(-c2nn3ccccc3c2-c2ccncc2)cc1
7.59
5. CCn1cc(-c2ccnc3[nH]ccc23)c(-c2cccc(NC(=O)Nc3ccc(OCc4ccccc4)cc3)c2)n1
1.79

----------
- assayed-system: Ephrin type-A receptor 2 (Homo sapiens) (UniProt P29317);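 further: reported values are mean percent inhibition of EPHA2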
- Sequence (P29317 whole entry): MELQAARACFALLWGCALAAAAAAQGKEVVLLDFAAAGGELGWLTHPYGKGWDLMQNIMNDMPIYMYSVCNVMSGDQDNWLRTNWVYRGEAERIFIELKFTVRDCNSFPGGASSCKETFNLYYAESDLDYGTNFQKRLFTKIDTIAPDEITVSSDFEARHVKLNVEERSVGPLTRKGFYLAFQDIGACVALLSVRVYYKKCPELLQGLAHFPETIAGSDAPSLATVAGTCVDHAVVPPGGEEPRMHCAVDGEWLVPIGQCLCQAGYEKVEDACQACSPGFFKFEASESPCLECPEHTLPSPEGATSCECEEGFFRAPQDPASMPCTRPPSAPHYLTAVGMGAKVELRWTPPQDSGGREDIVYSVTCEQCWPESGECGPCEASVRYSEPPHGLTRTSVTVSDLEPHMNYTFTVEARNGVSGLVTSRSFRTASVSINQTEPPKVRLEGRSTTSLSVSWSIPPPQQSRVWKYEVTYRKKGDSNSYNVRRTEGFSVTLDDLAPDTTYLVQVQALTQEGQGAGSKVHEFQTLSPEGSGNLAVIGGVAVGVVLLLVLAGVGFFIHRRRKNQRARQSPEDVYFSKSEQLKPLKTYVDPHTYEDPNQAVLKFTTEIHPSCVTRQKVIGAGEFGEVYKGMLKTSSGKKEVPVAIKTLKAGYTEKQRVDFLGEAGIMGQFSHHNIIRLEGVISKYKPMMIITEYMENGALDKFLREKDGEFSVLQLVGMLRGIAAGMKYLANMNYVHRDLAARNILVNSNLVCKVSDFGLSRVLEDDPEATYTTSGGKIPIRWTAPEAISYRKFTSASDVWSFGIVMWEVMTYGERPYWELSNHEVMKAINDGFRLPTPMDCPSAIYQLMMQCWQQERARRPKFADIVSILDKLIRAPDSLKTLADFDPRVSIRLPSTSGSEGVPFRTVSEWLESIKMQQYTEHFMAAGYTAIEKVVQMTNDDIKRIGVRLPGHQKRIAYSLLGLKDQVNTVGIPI
- experimental-setup: at 0.1 µM
observation-type: inhibition

1. CC(C)(CO)CNC(=O)c1ccc2c(c1)/C(=N/Nc1ccc(S(N)(=O)=O)cc1)C(=O)N2
-2.4%
2. c1ccc(COc2ccc(Nc3ncnc4ccc(-c5ccco5)cc34)cc2)cc1
0.9%
3. Nc1nc(-c2ccc(F)cc2)c(-c2ccc3ncccc3n2)s1
0.69%
4. COc1ccc(CNC(=O)c2ccc(-c3cc(-c4nnc(C)o4)ccc3C)cc2)cc1
2.44%
5. Cc1cccc(Nc2ncc(-c3ccccc3)o2)c1
2.27%

----------
Below, each entry is listed with its recorded inhibition.
- assayed-system: Rhodopsin kinase GRK7 (Homo sapiens) (UniProt Q8WTQ7);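 further: reported figures are mean percent inhibition of GRK7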
- Sequence (Q8WTQ7 whole entry): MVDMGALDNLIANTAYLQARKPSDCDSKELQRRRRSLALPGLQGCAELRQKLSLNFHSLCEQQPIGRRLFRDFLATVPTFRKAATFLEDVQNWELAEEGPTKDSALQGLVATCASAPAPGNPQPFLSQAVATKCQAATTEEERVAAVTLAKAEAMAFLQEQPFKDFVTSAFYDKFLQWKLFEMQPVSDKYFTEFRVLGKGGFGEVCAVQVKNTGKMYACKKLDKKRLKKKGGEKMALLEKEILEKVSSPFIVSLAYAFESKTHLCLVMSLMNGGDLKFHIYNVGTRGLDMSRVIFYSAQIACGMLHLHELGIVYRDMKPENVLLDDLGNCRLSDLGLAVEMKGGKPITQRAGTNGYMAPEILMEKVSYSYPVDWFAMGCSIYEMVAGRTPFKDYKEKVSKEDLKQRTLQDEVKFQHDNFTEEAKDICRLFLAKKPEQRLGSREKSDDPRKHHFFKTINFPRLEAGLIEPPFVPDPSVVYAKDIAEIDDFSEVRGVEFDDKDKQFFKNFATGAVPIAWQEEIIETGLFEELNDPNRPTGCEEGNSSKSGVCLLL
- experimental-setup: at 0.1 µM
observation-type: inhibition (%)

1. Nc1ncc(-c2cccc(S(N)(=O)=O)c2)c2scc(-c3ccc(F)c(Cl)c3)c12
6.15
2. CN(C)CCOc1ccc(-c2nc(-c3ccncc3)c(-c3ccc4c(c3)CC/C4=N\O)[nH]2)cc1
1.71
3. [O-][S+]1CCN(Cc2ccc(-c3ccc4ncnc(Nc5ccc(OCc6cccc(F)c6)c(Cl)c5)c4c3)o2)CC1
9.08
4. N#Cc1c(NC(=O)CN2CCOCC2)sc2c1CCCC2
3.28
5. CCCN(CCS(C)(=O)=O)Cc1ccc(-c2ccc3ncnc(Nc4ccc(OCc5cccc(F)c5)c(Cl)c4)c3c2)o1
-0.29
6. CCn1c(-c2nonc2N)nc2c(C#CC(C)(C)O)nc(OC[C@H](N)c3ccccc3)cc21
2.77
7. FC(F)(F)c1cccc(-c2nn3ncccc3c2-c2ccnc(Nc3ccc4c(c3)OCCO4)n2)c1
1.8
8. CCn1c(-c2nonc2N)nc2cnc(Oc3cccc(NC(=O)c4ccc(N(C)C)cc4)c3)cc21
2.74
9. CCNC(=O)O[C@H]1CN[C@H](C#Cc2cc3ncnc(Nc4ccc(OCc5cccc(F)c5)c(Cl)c4)c3s2)C1
2.34
10. CNC(=O)c1cc(-c2ccc(F)cc2)cc(-c2ccc(S(=O)(=O)N3CCCC3)cc2)c1N
9.52
11. Fc1ccc(-c2cc(-c3c[nH]nc3-c3ccccn3)ccn2)cc1
3.52
12. CCn1c(-c2nonc2N)nc2c(C#CC(C)(C)O)ncc(OC3CCNCC3)c21
7.74
13. CNC(=O)c1cncc(/C=C/c2ccccc2Cl)c1
2.3
14. COc1cc(N2CCN(C(C)C)CC2)ccc1Nc1nc(Nc2ccc(F)cc2C(N)=O)c2cc[nH]c2n1
5.3
15. COc1cccc(-c2c[nH]c3c(N/N=C/c4ccncc4)ncnc23)c1
0.28
16. CC(=O)NCc1cccc(C#Cc2cncnc2Nc2ccc(OCc3cccc(F)c3)c(Cl)c2)c1
-1.42
17. Clc1ccc(-c2nn3ncccc3c2-c2ccnc(Nc3ccccc3)n2)cc1
3.88
18. CC(C)COC(=O)c1ccc2c(c1)/C(=C/Nc1ccc(S(N)(=O)=O)cc1)C(=O)N2
-4.26
19. CS(=O)(=O)CCNCc1ccc(-c2ccc3ncnc(Nc4ccc(OCc5ccccc5)c(C(F)(F)F)c4)c3c2)o1
10.8

----------
Each entry below lists one item and its recorded inhibition value.
- assayed-system: MAP/microtubule affinity-regulating kinase 4 (Homo sapiens);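 further: reported value is a mean MARK4 inhibition at 1 µM, taken from the GSK PKIS screening set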
- experimental-setup: at 1 µM
observation-type: inhibition (%)

1. Nc1nc(-c2ccc(F)cc2)c(-c2ccc3ncccc3n2)s1
2.43
2. Fc1cccc(COc2ccc(Nc3ncnc4sc(-c5ccco5)cc34)cc2Cl)c1
3.94
3. c1cc(-c2cnn3nc(N4CCOCC4)ccc23)nc(NC2CC2)n1
5.05
4. [O-][S+]1CCN(Cc2ccc(-c3ccc4ncnc(Nc5ccc(OCc6cccc(F)c6)c(Cl)c5)c4c3)o2)CC1
3.99
5. CCCN1CCC(c2ccc(Nc3nc(Nc4cc(F)ccc4C(N)=O)c4cc[nH]c4n3)c(OC)c2)CC1
42.6
6. CCCN(CCS(C)(=O)=O)Cc1ccc(-c2ccc3ncnc(Nc4ccc(OCc5cccc(F)c5)c(Cl)c4)c3c2)o1
-0.36
7. CCn1c(-c2nonc2N)nc2cnc(Oc3cccc(NC(=O)c4ccc(N(C)C)cc4)c3)cc21
3.87
8. COC(=O)c1sc(-n2cnc3cc(OC)c(OC)cc32)cc1OCc1ccccc1C(F)(F)F
4.85
9. NC(=O)c1sc(-n2cnc3ccc(C(F)(F)F)cc32)cc1OCc1ccccc1Br
2.56

----------
- assayed-system: Serine/threonine-protein kinase B-raf (Homo sapiens) (UniProt P15056);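 further: reported value is the mean percent inhibition of BRAF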
- Sequence (P15056 whole entry): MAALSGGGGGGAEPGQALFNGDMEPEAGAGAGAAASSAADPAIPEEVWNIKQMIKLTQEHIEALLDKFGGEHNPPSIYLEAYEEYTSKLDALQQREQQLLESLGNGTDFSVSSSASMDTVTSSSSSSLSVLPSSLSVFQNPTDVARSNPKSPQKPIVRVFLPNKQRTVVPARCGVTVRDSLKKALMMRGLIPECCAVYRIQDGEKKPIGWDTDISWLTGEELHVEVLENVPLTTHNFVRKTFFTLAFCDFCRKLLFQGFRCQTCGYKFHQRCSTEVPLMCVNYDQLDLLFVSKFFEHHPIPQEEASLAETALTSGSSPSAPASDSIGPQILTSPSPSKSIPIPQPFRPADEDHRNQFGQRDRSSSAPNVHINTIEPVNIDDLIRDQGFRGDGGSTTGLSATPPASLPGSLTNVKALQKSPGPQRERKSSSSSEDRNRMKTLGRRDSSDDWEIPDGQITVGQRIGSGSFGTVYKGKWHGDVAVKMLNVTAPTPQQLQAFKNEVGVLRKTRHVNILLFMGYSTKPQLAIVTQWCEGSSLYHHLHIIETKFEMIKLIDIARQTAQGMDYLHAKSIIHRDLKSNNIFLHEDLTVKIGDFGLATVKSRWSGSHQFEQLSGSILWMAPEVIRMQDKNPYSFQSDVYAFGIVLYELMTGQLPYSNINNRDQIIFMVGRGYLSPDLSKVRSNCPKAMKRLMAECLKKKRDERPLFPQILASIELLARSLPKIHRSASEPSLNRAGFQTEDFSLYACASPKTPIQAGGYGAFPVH
- experimental-setup: at 1 µM
In this section, each of the compounds is paired with its reported inhibition.
observation-type: inhibition (%)

1. CC1=C(C(=O)Nc2cc(Cl)c3[nH]ncc3c2)C(c2ccc(C(F)(F)F)cc2)CC(=O)N1 (stereo not given)
35.7
2. c1ccc(COc2ccc(Nc3ncnc4ccc(-c5ccco5)cc34)cc2)cc1
1.99
3. Cc1ccc(O)cc1Nc1ccnc2cc(-c3ccccn3)ccc12
12.1
4. NS(=O)(=O)c1ccc(N/N=C2\C(=O)Nc3ccc4ncccc4c32)cc1
60.2
5. N#Cc1c(NC(=O)c2ccc(F)cc2)sc2c1CCCC2
3.03
6. COc1cc(Nc2nccc(Nc3ccc4c(C)n[nH]c4c3)n2)cc(OC)c1OC
9.2
7. CCn1c(-c2nonc2N)nc2ccccc21
4.94
8. N#Cc1c(NC(=O)CN2CCOCC2)sc2c1CCCC2
6.96
9. COc1ccc(-c2cc3c(N)ncnc3o2)cc1
-0.19
10. COc1cc2c(cc1Nc1nc(Nc3ccsc3C(N)=O)c3cc[nH]c3n1)N(C(=O)CN(C)C)CCC2(C)C
14.9
11. CCCN(CCS(C)(=O)=O)Cc1ccc(-c2ccc3ncnc(Nc4ccc(OCc5cccc(F)c5)c(Cl)c4)c3c2)o1
3.72
12. CNC(=O)c1cc(-c2ccc(F)cc2)cc(-c2ccc(S(=O)(=O)N3CCCC3)cc2)c1N
3.4
13. CCN1CCC(CC(=O)Nc2n[nH]c3nnc(-c4cccc(F)c4F)cc23)CC1
2.64
14. O=S(=O)(CCNCc1ccc(-c2ccc3ncnc(Nc4ccc(OCc5cccc(F)c5)c(Cl)c4)c3c2)o1)c1ccccc1
8.78
15. COc1ccc(-c2nn3ncccc3c2-c2ccnc(Nc3ccc4c(c3)OCCO4)n2)cc1
5.07
16. COc1cc(N2CCN(C(C)C)CC2)ccc1Nc1nc(Nc2ccc(F)cc2C(N)=O)c2cc[nH]c2n1
16.1
17. c1ccc(-c2nc3n(c2-c2ccc4c(c2)OCO4)CCC3)nc1
2.48
18. CC(=O)Nc1cccc(C#Cc2cncnc2Nc2ccc(OCc3cccc(F)c3)c(Cl)c2)c1
1.44
19. Fc1cccc(COc2ccc(Nc3ncnc4sc(-c5ccco5)cc34)cc2Cl)c1
5.32
20. CCOc1ccc2c(-c3ccnc(Nc4cccc(C(F)(F)F)c4)n3)cnn2n1
1.64

----------
- assayed-system: cAMP-dependent protein kinase catalytic subunit alpha (Homo sapiens) (UniProt P17612);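 further: mean percent inhibition of PKA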
- experimental-setup: at 1 µM
# maps each entry to its inhibition
observation-type: inhibition (%)

1. CCN(CC)S(=O)(=O)c1ccc(OC)c(Nc2ncc(-c3ccccc3)o2)c1
1.82
2. CNC(=O)c1cccc(C#Cc2cncnc2Nc2ccc(OCc3cccc(F)c3)c(Cl)c2)c1
0.28
3. Clc1ccc(-c2nn3ncccc3c2-c2ccnc(Nc3ccccc3)n2)cc1
2.52
4. Fc1ccc(-c2nn3ccccc3c2-c2ccncc2)cc1
16
5. COc1ccc2c(-c3ccnc(Nc4cccc(OC(F)(F)F)c4)n3)cnn2n1
3.17

----------
inhibition reference
- assayed-system: Death-associated protein kinase 1 (Homo sapiens) (UniProt P53355);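 further: each value is a mean inhibition figure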
- Sequence (P53355 whole entry, looked up): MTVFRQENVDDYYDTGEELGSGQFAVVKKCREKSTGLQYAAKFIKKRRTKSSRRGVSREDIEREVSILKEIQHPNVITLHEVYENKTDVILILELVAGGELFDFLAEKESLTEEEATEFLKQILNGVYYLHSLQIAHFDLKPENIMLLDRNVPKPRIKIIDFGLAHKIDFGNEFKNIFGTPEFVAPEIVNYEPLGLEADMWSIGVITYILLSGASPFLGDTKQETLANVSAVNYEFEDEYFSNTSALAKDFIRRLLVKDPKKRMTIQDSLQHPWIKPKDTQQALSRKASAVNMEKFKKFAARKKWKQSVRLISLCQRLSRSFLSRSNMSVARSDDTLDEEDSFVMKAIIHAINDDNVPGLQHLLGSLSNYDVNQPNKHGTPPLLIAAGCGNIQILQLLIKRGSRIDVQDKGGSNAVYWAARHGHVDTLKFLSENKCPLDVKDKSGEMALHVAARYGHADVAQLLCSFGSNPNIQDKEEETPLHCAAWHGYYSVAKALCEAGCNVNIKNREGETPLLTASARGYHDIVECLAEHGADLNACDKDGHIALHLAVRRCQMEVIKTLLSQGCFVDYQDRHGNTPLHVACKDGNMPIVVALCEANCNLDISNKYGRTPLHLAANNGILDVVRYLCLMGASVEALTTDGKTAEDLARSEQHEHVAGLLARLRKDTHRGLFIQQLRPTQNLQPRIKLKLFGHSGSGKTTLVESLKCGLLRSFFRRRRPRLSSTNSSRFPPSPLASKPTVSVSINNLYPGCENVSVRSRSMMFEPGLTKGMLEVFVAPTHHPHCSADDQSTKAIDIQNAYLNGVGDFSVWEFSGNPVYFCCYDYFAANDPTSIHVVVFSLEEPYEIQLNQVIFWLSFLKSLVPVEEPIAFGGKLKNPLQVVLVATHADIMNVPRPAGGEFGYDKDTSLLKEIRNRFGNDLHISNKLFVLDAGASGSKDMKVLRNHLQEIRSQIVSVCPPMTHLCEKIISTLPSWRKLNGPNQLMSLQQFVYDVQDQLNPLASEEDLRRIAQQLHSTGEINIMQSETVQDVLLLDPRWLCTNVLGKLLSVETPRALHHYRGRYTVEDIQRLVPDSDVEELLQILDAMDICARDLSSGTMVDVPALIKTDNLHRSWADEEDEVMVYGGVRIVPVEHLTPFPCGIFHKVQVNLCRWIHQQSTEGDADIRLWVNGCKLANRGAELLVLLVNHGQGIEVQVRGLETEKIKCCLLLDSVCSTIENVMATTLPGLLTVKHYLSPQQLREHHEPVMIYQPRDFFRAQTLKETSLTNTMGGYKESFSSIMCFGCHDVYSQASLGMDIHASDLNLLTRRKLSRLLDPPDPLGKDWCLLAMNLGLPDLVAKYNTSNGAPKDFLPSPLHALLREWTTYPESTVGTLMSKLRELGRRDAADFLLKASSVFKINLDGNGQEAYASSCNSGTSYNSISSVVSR
- experimental-setup: at 1 µM
observation-type: inhibition

1. COc1ccc(-c2cc(-c3c[nH]nc3-c3ccccn3)ccn2)cc1
6.22%
2. CS(=O)(=O)CCNCc1coc(-c2ccc3ncnc(Nc4ccc(OCc5ccccc5)cc4)c3c2)c1
1.73%
3. COc1cc(/C=N/Nc2ncnc3[nH]ncc23)ccc1O
4.2%
4. N#Cc1c(NC(=O)c2ccc(F)cc2)sc2c1CCCC2
0.36%
5. Nc1nc(-c2cccc(Cl)c2)c(-c2ccc3ncccc3n2)s1
15.4%
6. Clc1ccc(-c2nn3ncccc3c2-c2ccnc(Nc3ccccc3)n2)cc1
-0.24%

----------
- assayed-system: Serine/threonine-protein kinase pim-2 (Homo sapiens) (UniProt Q9P1W9);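 further: each value is a mean of the inhibition measurements against the kinase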
- Sequence (Q9P1W9 whole entry, looked up): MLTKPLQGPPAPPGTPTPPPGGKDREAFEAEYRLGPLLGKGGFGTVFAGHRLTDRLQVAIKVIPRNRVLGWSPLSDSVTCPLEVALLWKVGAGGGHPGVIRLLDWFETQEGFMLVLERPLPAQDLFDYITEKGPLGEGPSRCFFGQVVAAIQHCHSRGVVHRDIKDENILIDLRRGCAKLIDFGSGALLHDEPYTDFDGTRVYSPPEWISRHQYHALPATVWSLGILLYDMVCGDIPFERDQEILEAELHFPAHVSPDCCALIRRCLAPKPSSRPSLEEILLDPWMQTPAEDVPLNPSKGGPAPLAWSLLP
- experimental-setup: at 1 µM
Tick criterion met if inhibition is 0.7% or greater. Tick criterion not met if inhibition is less than 0.7%.

1) COc1ccc2[nH]c3c4[nH]c5ccc(OC)cc5c4c4c(c3c2c1)C(=O)NC4=O
criterion met
2) FC(F)(F)c1cccc(-c2nn3ncccc3c2-c2ccnc(Nc3ccc4c(c3)OCCO4)n2)c1
criterion not met
3) CCn1c(-c2nonc2N)nc2ccccc21
criterion met
4) COC(=O)Nc1nc2ccc(S(=O)(=O)c3ccc(NC(=O)Nc4cc(C(F)(F)F)ccc4F)cc3)cc2[nH]1
criterion met
5) CCc1nn2ncccc2c1-c1ccnc(NC2CC2)n1
criterion met

Attribution: ChEMBL document CHEMBL1961873
